Catalogue of IC50 values
target: BRD4 BD2 (Homo sapiens, UniProt O60885); experiment: AlphaScreen binding assay, BRD4 Bromodomain 2

The recorded IC50 for entry COC(=O)N1c2ccc(-c3cnn(CCO)c3)cc2N(C(=O)OC(C)C)C[C@@H]1C [Example I-324] equals 50 to 500 nM

The recorded IC50 for entry CC(=O)N1c2ccc(-c3cnn(C)c3C)cc2N(C(=O)OC(C)C)C[C@@H]1C [Example I-339] equals 50 to 500 nM

The recorded IC50 for entry CC(C)OC(=O)N1C[C@H](C)N(C(=O)C2CC2)c2ccc(-c3ccc(C(=O)NCCN)cc3)cc21 [Example I-481] equals > 500 nM

###

biological target: BRD4 BD1 (Homo sapiens, UniProt O60885); assay: AlphaScreen binding assay, BRD4 Bromodomain 1
experimental_readout: IC50

Sample answers from the record:
> print(dat)
                           molecular.string  experimental.readout  result.value
1  CC(=O)N1c2ccc(-c3cnn(C4CCNCC4)c3)cc2N(C(=O)C2CC2)C[C@@H]1C                  IC50    1 to 10 µM
2  CC(=O)N1c2ccc(-c3ccc(S(=O)(=O)C(C)C)cc3)cc2N(C(=O)OC(C)C)C[C@@H]1C                  IC50   0.1 to 1 µM
3  CC(=O)N1c2ccccc2N(C(=O)c2ccc3c(c2)CCO3)C[C@@H]1C                  IC50       > 10 µM

Attention now turns to another entry.
The recorded IC50 for entry CCOC(=O)N1C[C@H](C)N(C(C)=O)c2ccc(-c3ccc(NS(C)(=O)=O)c(F)c3)cc21 equals 0.1 to 1 µM

###

Target: BRD4 BD1 (Homo sapiens, UniProt O60885)
Test: AlphaScreen binding assay, BRD4 Bromodomain 1
Experimental: The binding of Example compounds to BRD4 Bromodomain 1 and BRD4 Bromodomain 2 was assessed using 384-well AlphaScreen assay technology. His-epitope tagged BRD4 BD144-168 and BRD4 BD2333-460 were cloned, expressed, and purified to homogeneity. BRD4 BD1 and BRD4 BD2 binding and inhibition was assessed by monitoring the engagement of biotinylated Histone H4 (1-21) K5/8/12/16 tetra-acetylated peptide with the targets using the AlphaScreen technology (PerkinElmer). […]
pIC50: −log10 of the molar value.
experimental_readout: pIC50

Sample answers from the record:
> print(dat)
                                   compound  result.value
1  CC(=O)N1c2ccc(-c3cnn(C4CCNCC4)c3)cc2N(C(=O)Oc2ccc(F)cc2F)C[C@@H]1C  6.00 to 7.00
2  CC(=O)N1c2ccc(-c3cnc(N)cn3)cc2N(C(=O)C2CC2)C[C@@H]1C  6.00 to 7.00
3  CC(=O)N1c2ccc(-c3ccc(S(C)(=O)=O)cc3)nc2N(C(=O)c2ccco2)C[C@@H]1C  5.00 to 6.00

The recorded pIC50 for entry CC(=O)N1c2ccc(-c3cn(C)nn3)cc2N(C(=O)C2CC2)C[C@@H]1C equals 5.00 to 6.00

The recorded pIC50 for entry CC(=O)N1c2ccccc2N(C(=O)COc2cccc3ccccc23)C[C@@H]1C equals < 5.00

The recorded pIC50 for entry CC(=O)N1c2ccc(-c3cc(Cl)cc(S(C)(=O)=O)c3)cc2N(C(=O)OC(C)C)C[C@@H]1C equals 5.00 to 6.00

###

Catalogue of IC50 values
molecular target: BRD4 BD2 (Homo sapiens, UniProt O60885); test: AlphaScreen binding assay, BRD4 Bromodomain 2

Sample answers from the record:
> print(dat)
                           molecular.string  result.value
1  COC(=O)c1ccc(OC(=O)N2C[C@H](C)N(C(C)=O)c3ccc(-c4cnn(C5CC5)c4)cc32)cc1       < 50 nM
2  CC(=O)N1c2ccc(-c3ccc(N(C)S(C)(=O)=O)cc3)cc2N(C(=O)c2ccco2)C[C@@H]1C       < 50 nM
3    CC(=O)N1c2ccccc2N(Cc2ccccc2C)C[C@@H]1C      > 500 nM
4  CC(=O)N1c2ccc(-c3cccc(S(=O)(=O)N(C)C)c3)cc2N(C(=O)OC2CCCCC2)C[C@@H]1C  50 to 500 nM
5  CC(=O)N1c2ccc(-c3ccc(C)s3)cc2N(C(=O)c2ccco2)C[C@@H]1C       < 50 nM

Attention now turns to another entry.
The recorded IC50 for entry CC(=O)N1c2ccc(-c3cn(C)nn3)cc2N(C(=O)OC(C)C)C[C@@H]1C equals 50 to 500 nM

###

target: BRD4 BD1 (Homo sapiens); assay: AlphaScreen binding assay, BRD4 Bromodomain 1
pIC50: −log10 of the molar value.
experimental_readout: pIC50

Sample answers from the record:
> print(dat)
                                   molecule            system.tested  result.value
1  CC(=O)N1c2ccc(-c3cnn(CCO)c3)cc2N(c2nn(C)c3ccc(F)cc23)C[C@@H]1C [Example I-189]  BRD4 BD1 (Homo sapiens)  5.00 to 6.00
2  CC(=O)N1c2ccc(-c3ccc(S(C)(=O)=O)cc3)cc2N(C(=O)c2ccco2)C[C@@H]1C [Example I-817]  BRD4 BD1 (Homo sapiens)  5.00 to 6.00
3  CCOC(=O)N1C[C@H](C)N(C(C)=O)c2ccc(-c3ccc(OCCS(C)(=O)=O)cc3)cc21 [Example I-1102]  BRD4 BD1 (Homo sapiens)  6.00 to 7.00

The recorded pIC50 for entry CCS(=O)(=O)Nc1ccc(-c2ccc3c(c2)N(C(=O)C2CCC2)C[C@H](C)N3C(C)=O)cc1 [Example I-1136] equals 6.00 to 7.00

The recorded pIC50 for entry CC(=O)N1c2ccc(-c3ccc(S(C)(=O)=O)c(F)c3)cc2N(C(=O)OC(C)C)C[C@@H]1C [Example I-1085] equals 5.00 to 6.00

The recorded pIC50 for entry CC(C)OC(=O)N1C[C@H](C)N(C(=O)C2CC2)c2ccc(-c3cnn(C[C@H]4CCNC4)c3)cc21 [Example I-690] equals 6.00 to 7.00

The recorded pIC50 for entry CC(=O)N1c2ccc(-c3ccc(S(=O)(=O)NC(C)(C)C)cc3)cc2N(C(=O)OC(C)C)C[C@@H]1C [Example I-1130] equals 6.00 to 7.00

The recorded pIC50 for entry CC(=O)N1c2ccc(-c3cnn(Cc4cc(C)on4)c3)cc2N(C(=O)OC(C)C)C[C@@H]1C [Example I-665] equals 6.00 to 7.00

The recorded pIC50 for entry CC(=O)N1c2ccccc2N(C(=O)CC(C)C)C[C@@H]1C [Example I-708] equals < 5.00

###

biological target: BRD4 BD1 (Homo sapiens); assay: AlphaScreen binding assay, BRD4 Bromodomain 1
Catalogue of IC50 values

Sample answers from the record:
> print(dat)
                                   compound      result.value
1  CC(=O)N1c2ccc(-c3cccc(S(C)(=O)=O)c3)cc2N(C(=O)OC2CCCCC2)C[C@@H]1C [Example I-1225]    100 to 1000 nM
2  CC(=O)N1c2ccc(-c3ccc4c(c3)CCCN4S(C)(=O)=O)cc2N(C(=O)OC(C)C)C[C@@H]1C [Example I-1160]    100 to 1000 nM
3  CC(=O)N1c2ccc(-c3ccc(S(C)(=O)=O)cc3)cc2N(C(=O)C(C)(C)C)C[C@@H]1C [Example I-243]        > 10000 nM
4  CC(=O)N1c2ccc(-c3ccc(-c4ccccc4)cc3)cc2N(C(=O)c2ccco2)C[C@@H]1C [Example I-798]  1000 to 10000 nM
5  CC(=O)N1c2ccccc2N(C(=O)Cc2csc3ccc(Cl)cc23)C[C@@H]1C [Example I-739]        > 10000 nM
6  CC(=O)N1c2ccc(-c3cccc(S(N)(=O)=O)c3)cc2N(C(=O)OC2CCCCC2)C[C@@H]1C [Example I-1219]    100 to 1000 nM

The recorded IC50 for entry CCS(=O)(=O)Nc1cccc(-c2ccc3c(c2)N(C(=O)OC2CCOCC2)C[C@H](C)N3C(C)=O)c1 [Example I-1228] equals 100 to 1000 nM

The recorded IC50 for entry CC(C)OC(=O)N1C[C@H](C)N(C(=O)C2CC2)c2ccc(-c3cnn(CCN4CCOCC4)c3)cc21 [Example I-312] equals 100 to 1000 nM

The recorded IC50 for entry CC(=O)N1c2ccc(-c3cnn(C4COC4)c3)cc2N(C(=O)C2CC2)C[C@@H]1C [Example I-10] equals 100 to 1000 nM

The recorded IC50 for entry CC(=O)N1c2ccc(-c3ccc4c(c3)CCN4S(C)(=O)=O)cc2N(C(=O)C2CC2)C[C@@H]1C [Example I-352] equals < 100 nM

The recorded IC50 for entry CC(=O)N1c2ccc(-c3cccc(-c4nnc(C)o4)c3)cc2N(C(=O)c2ccco2)C[C@@H]1C [Example I-854] equals 1000 to 10000 nM

The recorded IC50 for entry CC(=O)N1c2ccccc2N(C(=O)c2cc3ccncc3o2)C[C@@H]1C [Example I-777] equals > 10000 nM

The recorded IC50 for entry CC(=O)N1c2ccc(-c3ccc(N4CCCS4(=O)=O)cc3)cc2N(C(=O)OC2CC(F)(F)C2)C[C@@H]1C [Example I-29] equals 100 to 1000 nM

The recorded IC50 for entry COc1cc(-c2ccc3c(c2)N(C(=O)c2ccco2)C[C@H](C)N3C(C)=O)ccc1F [Example I-828] equals 1000 to 10000 nM

The recorded IC50 for entry CC(C)OC(=O)N1C[C@H](C)N(C(=O)C2CC2)c2ccc(-c3ccc(C(=O)N4CC[C@@H](O)C4)cc3)cc21 [Example I-576] equals 100 to 1000 nM

The recorded IC50 for entry CC(=O)N1c2ccccc2N(Cc2ccncc2)C[C@@H]1C [Example I-912] equals > 10000 nM

The recorded IC50 for entry CC(=O)N1c2ccc(-c3ccc(C(=O)N4CCNCC4)cc3)cc2N(C(=O)OC(C)C)C[C@@H]1C [Example I-557] equals 100 to 1000 nM

The recorded IC50 for entry CCOC(=O)N1C[C@H](C)N(C(C)=O)c2ccc(-c3ccc(OC)c(NS(C)(=O)=O)c3)cc21 [Example I-1141] equals 100 to 1000 nM

The recorded IC50 for entry CCS(=O)(=O)c1ccc(-c2ccc3c(c2)N(C(=O)OC2CCOCC2)C[C@H](C)N3C(C)=O)cc1 [Example I-1214] equals 100 to 1000 nM

The recorded IC50 for entry CC(=O)N1c2ccc(-c3ccc(OC(F)(F)F)cc3)cc2N(C(=O)c2ccco2)C[C@@H]1C [Example I-808] equals 1000 to 10000 nM

The recorded IC50 for entry CC(=O)N1c2ccc(-c3ccc(C4(O)COC4)cc3)cc2N(C(=O)OC(C)C)C[C@@H]1C [Example I-473] equals 100 to 1000 nM

The recorded IC50 for entry COC(=O)N1c2ccc(-c3cnn(CC4CC4)c3)cc2N(C(=O)OC(C)C)C[C@@H]1C [Example I-325] equals 100 to 1000 nM

The recorded IC50 for entry CC(=O)N1c2ccc(-c3cnn(CCO)c3)cc2N(C(=O)OC(CF)CF)C[C@@H]1C [Example I-83] equals 100 to 1000 nM

The recorded IC50 for entry CC(=O)N1c2ccc(-c3ccc4c(cnn4C)c3)cc2N(C(=O)c2ccco2)C[C@@H]1C [Example I-852] equals 100 to 1000 nM

Reference source for all entries: patent US10703764B2
